assay_procedure: protein stability index of a GFP-peptide fusion (yeast GPS) (PSI 1-4); higher = more stable; sorted into four equal gates, so the index is relative within each strain
experimental_parameters: pdr5∆
param class (str): category from protein stability index; see ranges bottom bin (below 2), middle bin (2 to below 3), top bin (3 or more)

| seq_text | class_assignment |
| --- | --- |
| QQQIIKIRITLTSTKVK [RPS20] | bottom bin |
| TFLPPLLLKLASPHASV [ECM29] | bottom bin |
| EEIEPKLEKLRNEKRMF [SMC2] | top bin |
| LESINEGNQIIVFVHSR [BRR2] | bottom bin |
| VSSKPSKPESSVLQLIV [MED1] | top bin |

Consider LAVKVHGGSRYATKDGV [QCR2] . To which protein stability index class does it belong? bottom bin

Consider AIPNGIHLQRFDEGTTL [RPO21] . To which protein stability index class does it belong? bottom bin

Consider SSDGQLKKFRESLVHSA [BRR2] . To which protein stability index class does it belong? top bin

Consider LALGSHNKLIQFGNACI [SSN2] . To which protein stability index class does it belong? bottom bin

Consider NVGTNTYRLGEWSKISV [POP1] . To which protein stability index class does it belong? middle bin

Consider FMRQNLEWNMANLLFKK [RPC82] . To which protein stability index class does it belong? bottom bin

Consider SNYAASNSMDRSSSASN [SWI1] . To which protein stability index class does it belong? middle bin
